Assay: Apparent permeability of the compound at 50 uM after 5 hrs by PAMPA
Assay type: ADME
Square brackets hold non-standard residues; d marks the D form. Peptide text beside a SMILES is read from it. NMeF = CN[C@@H](Cc1ccccc1)C(=O)O; NMeI = CC[C@H](C)[C@H](NC)C(=O)O; NMeS = CN[C@@H](CO)C(=O)O; Sar = CNCC(=O)O
Parameter Measured: Papp

Some entries whose results are on file:
{"columns": ["Molecule", "Papp"],
 "data": [
  ["CC[C@H](C)[C@@H]1NC(=O)CNC(=O)[C@H](CC(C)C)NC(=O)[C@H]([C@@H](C)CC)NC(=O)[C@H]([C@@H](C)CC)NC(=O)[C@H](CO)NC(=O)CN(C)C(=O)[C@H](CC(C)C)NC1=O (cyclo(GIL[Sar]SIIL))", "Impermeable"],
  ["CC[C@H](C)[C@@H]1NC(=O)CNC(=O)[C@H](CC(C)C)NC(=O)[C@H]([C@@H](C)CC)NC(=O)[C@H]([C@@H](C)CC)NC(=O)[C@H](CO)N(C)C(=O)CNC(=O)[C@H](CC(C)C)NC1=O (cyclo(GILG[NMeS]IIL))", "Impermeable"],
  ["CC[C@H](C)[C@@H]1NC(=O)[C@H]([C@@H](C)O)NC(=O)CN(C)C(=O)CNC(=O)[C@H](Cc2ccccc2)NC(=O)CNC(=O)[C@H](Cc2ccccc2)N(C)C(=O)[C@H]([C@@H](C)CC)N(C)C1=O (cyclo(FG[Sar]TI[NMeI][NMeF]G))", "Impermeable"],
  ["CC(C)C[C@@H]1NC(=O)CNC(=O)[C@@H]2CCCN2C(=O)CNC(=O)[C@H](Cc2c[nH]c3ccccc23)NC(=O)[C@H](CC(C)C)NC(=O)[C@H](CC(N)=O)NC(=O)[C@H](CC(C)C)NC1=O (cyclo(GLLNLWGP))", "Impermeable"],
  ["CC[C@H](C)[C@@H]1NC(=O)CNC(=O)[C@H](CC(C)C)NC(=O)[C@H]([C@@H](C)CC)NC(=O)[C@H]([C@@H](C)CC)NC(=O)[C@H](CO)NC(=O)CNC(=O)[C@H](CC(C)C)NC1=O (cyclo(GILGSIIL))", "Impermeable"]
]}

Kindly consider the entry below.
Q: Form field: reported Papp of CC[C@H](C)[C@@H]1NC(=O)[C@H]([C@@H](C)O)NC(=O)CN(C)C(=O)CNC(=O)[C@H](Cc2ccccc2)NC(=O)CNC(=O)[C@H](Cc2ccccc2)N(C)C(=O)[C@H]([C@@H](C)CC)NC1=O (cyclo(FG[Sar]TII[NMeF]G))
Result: Impermeable

* * *

Assay: Apparent permeability across human Caco2 cells at 50 uM after 90 mins by LC-MS analysis
Type: ADME, cell-based
Conditions: caco-2, 1.5 h
Square brackets hold non-standard residues; d marks the D form. Peptide text beside a SMILES is read from it. NMeF = CN[C@@H](Cc1ccccc1)C(=O)O; NMeS = CN[C@@H](CO)C(=O)O; Sar = CNCC(=O)O

{"columns": ["Molecule", "Papp"],
 "data": [
  ["CC[C@H](C)[C@@H]1NC(=O)[C@H]([C@@H](C)O)NC(=O)CN(C)C(=O)CN(C)C(=O)[C@H](Cc2ccccc2)NC(=O)CN(C)C(=O)[C@H](Cc2ccccc2)N(C)C(=O)[C@H]([C@@H](C)CC)NC1=O (cyclo(F[Sar][Sar]TII[NMeF][Sar]))", "Impermeable"],
  ["CC[C@H](C)[C@@H]1NC(=O)CNC(=O)[C@H](CC(C)C)NC(=O)[C@H]([C@@H](C)CC)NC(=O)[C@H]([C@@H](C)CC)NC(=O)[C@H](CO)N(C)C(=O)CNC(=O)[C@H](CC(C)C)NC1=O (cyclo(GILG[NMeS]IIL))", "Impermeable"]
]}
